# System: Mus musculus
# assay_name: Percent urinary recovery was measured in mice after subcutaneous administration at dose 20 mg/kg.
# Format: functional, organism-based
# Design: dose 20 mg/kg
# condition_summary: Urine
# Recovery >= 50% gives y, anything below gives n

Take a look at these entries with their results.
chemical_smiles	assay_target	label_class
C[C@@H](O)[C@H]1C(=O)N2C(C(=O)O)=C(SCCNC=N)C[C@H]12.O	Mus musculus	n
CSC/C(=C\[C@@H]1CCCN1)C1=C(C(=O)O)N2C(=O)[C@H]([C@@H](C)O)[C@H]2C1	Mus musculus	y
C[C@@H](O)[C@H]1C(=O)N2C(C(=O)O)=C(/C=C/[C@@H]3CCCN3)[C@H](C)[C@H]12	Mus musculus	y
C[C@@H](O)[C@H]1C(=O)N2C(C(=O)O)=C(/C=C/[C@@H]3CCCN3)C[C@H]12	Mus musculus	n
C[C@@H](O)[C@H]1C(=O)N2C(C(=O)O)=C(/C(=C/[C@@H]3CCCN3)CN)C[C@H]12	Mus musculus	y

Determine whether measured Recovery meets or exceeds 50% for "C/C(=C\[C@@H]1CCCN1)C1=C(C(=O)O)N2C(=O)[C@H]([C@@H](C)O)[C@H]2C1"
y

Ok, now "COC/C(=C\[C@@H]1CCCN1)C1=C(C(=O)O)N2C(=O)[C@H]([C@@H](C)O)[C@H]2C1"
y

Value source: ChEMBL document CHEMBL1152079
